Literature-derived Ki for Protease (Human immunodeficiency virus 1, UniProt Q9YQ12) follows.
Consider the cut-off 30 nM. If the recorded Ki is strictly smaller, the label is yes; if not, the label is no.

Exam item: Dear reviewer, please state whether CCCNC(=O)c1cccc(C(=O)N[C@@H](Cc2ccccc2)[C@H](O)CN(CC(C)C)S(=O)(=O)c2ccc(OC)cc2)c1 has Ki strictly beneath 30 nM.
Marked response: yes

Exam item: # check: Ki < 30 nM for NC(=O)c1cccc(CN2C(=O)N(Cc3cccc(C(N)=O)c3)C(Cc3ccc(F)cc3)C(O)C2CCc2ccc(F)cc2)c1 (stereo not drawn)
Marked response: yes

Exam item: Ki strictly < 30 nM for this compound? C[C@H]1Cc2ccc(C(F)(F)F)cc2S(=O)(=O)N(C[C@@H](O)[C@H](Cc2ccccc2)NC(=O)OC(C)(C)C)C1
Marked response: no

Exam item: Ki under 30 nM? Item: C=CCNC(=O)[C@@H](NC(=O)[C@@](O)(CCCN(Cc1ccc(Br)cc1)NC(=O)[C@@H](NC(=O)OC)C(C)(C)C)Cc1ccc(C=C)cc1)C(C)(C)C
Marked response: yes

Exam item: Lab log: compare recorded Ki with 30 nM; is it strictly lower for CCCN(C)C(=O)c1cc(NC)cc(C(=O)N[C@@H](Cc2ccccc2)[C@H](O)CN(CC(C)C)S(=O)(=O)c2ccc(OC)cc2)c1 ?
Marked response: no

Exam item: Below 30 nM on Ki? Entry COc1ccc(S(=O)(=O)N(CC(C)C)C[C@@H](O)[C@H](Cc2ccccc2)NC(=O)O[C@H]2C[C@@H]3CO[C@@H]4OC[C@H]2[C@H]34)cc1
Marked response: yes

Exam item: # check: Ki < 30 nM for C=CCNC(=O)[C@@H](NC(=O)[C@@](O)(CCCN(Cc1ccc(Br)cc1)NC(=O)[C@@H](NC(=O)OC)C(C)(C)C)Cc1ccc(CC=C)cc1)C(C)(C)C
Marked response: no

Exam item: Criterion: Ki strictly below 30 nM. Is it met by COC(=O)N[C@H](C(=O)NN(CCC[C@@](O)(Cc1ccccc1)C(=O)N[C@H]1c2ccccc2C[C@H]1O)Cc1ccc(-n2ccnc2)cc1)C(C)(C)C ?
Marked response: yes

Exam item: Please let me know if C=CCOC(=O)N[C@@H](Cc1ccccc1)[C@H](O)CN1C[C@@H](C)Cc2ccccc2S1(=O)=O shows Ki below 30 nM.
Marked response: yes

Exam item: Please state whether Ki is below 30 nM for COc1ccc(S(=O)(=O)N(CC(C)C)C[C@@H](O)[C@H](Cc2cccc(-c3cc(OC(F)(F)F)cc(OC(F)(F)F)c3)c2)NC(=O)OC(C)(C)C)cc1
Marked response: no

* * *

Field Ki: reported value for Protease (Human immunodeficiency virus 1, UniProt Q9YQ12); entries drawn from several documents.
Numbers only, in nM.

Cc1ccccc1CNC(=O)[C@H]1N(C(=O)[C@@H](O)[C@H](Cc2ccccc2)NC(=O)c2cccc(N)c2Cl)CSC1(C)C    0.353
C[C@H]1Cc2cc(C(F)(F)F)ccc2S(=O)(=O)N(C[C@@H](O)[C@H](Cc2ccccc2)NC(=O)OC(C)(C)C)C1    186
COC(=O)N[C@H](C(=O)NN(CCC[C@@](O)(Cc1ccccc1)C(=O)N[C@H]1c2ccccc2C[C@H]1O)Cc1ccc(-c2ccncc2)cc1)C(C)(C)C    2.8
COC[C@@H]1C[C@@H](O)CN1C(=O)c1cccc(C(=O)N[C@@H](Cc2ccccc2)[C@H](O)CN(CC(C)C)S(=O)(=O)c2ccc(OC)cc2)c1    2.85
CC(C)(C)NC(=O)[C@@H]1CN(Cc2cccnc2)CCN1C[C@H](O)[C@@H](F)[C@@H](Cc1ccccc1)C(=O)N[C@H]1c2ccccc2C[C@H]1O    20

Parameters: items (list). Returns: Ki for each item.
1. COc1ccc(S(=O)(=O)N(CC(C)C)C[C@@H](O)[C@H](Cc2ccccc2)NC(=O)O[C@H]2C[C@H]3OC(=O)N(c4ccccc4)[C@H]3C2)cc1
2. O=C1N(Cc2cccc(-n3cccn3)c2)C(CCc2ccccc2)C(O)C(Cc2ccccc2)N1Cc1cccc(-n2cccn2)c1 (stereo not drawn)
3. COc1ccc(S(=O)(=O)N(CC(C)C)C[C@@H](O)[C@H](Cc2ccccc2)NC(=O)O[C@H]2CCC[C@H]3OCC[C@@H]23)cc1
4. COc1ccc(S(=O)(=O)N(CC(C)C)C[C@@H](O)[C@H](Cc2cccc(-c3c(OC)cccc3OC)c2)NC(=O)O[C@H]2CO[C@H]3OCC[C@H]32)cc1
5. CNC(=O)[C@@H](NC(=O)[C@@](O)(CCCN(Cc1ccc(-c2ccncc2)cc1)NC(=O)[C@@H](NC(=O)OC)C(C)(C)C)Cc1ccccc1)C(C)(C)C
6. N#Cc1cccc(CN2C(=O)N(Cc3cccc(N)c3)C(Cc3ccccc3)C(O)C2CCc2ccccc2)c1 (stereo not drawn)
7. N#Cc1cc(CN2C(=O)N(Cc3ccccc3)C(CCc3ccccc3)C(O)C2Cc2ccccc2)ccc1F (stereo not drawn)

Marked response:
1: 0.33; 2: 0.1; 3: 0.005; 4: 0.025; 5: 3.5; 6: 1.58; 7: 39.8
